GI50 listing for selected compounds.
# System: U-251
# Protocol summary: NCI tumour cell line growth inhibition, 48 h
Activity calls are given as the source filed them. No stated cut-off is given here; in the data, active = GI50 up to about 1.1 µM and inactive = higher.

Example entries and their recorded answers appear below.
CC(=O)OCC1OC(n2c3c(cc(C#N)c2=S)CCCCC3)C(OC(C)=O)C(OC(C)=O)C1OC(C)=O (centres undefined)
> 100 µM (inactive)
CCOC(=O)NC(=O)c1cn(CCN2CCN(C(=O)CNC(=O)CNC(=O)Cn3cc(C(=O)NC(=O)OCC)c(=O)[nH]c3=O)CC2)c(=O)[nH]c1=O
> 100 µM (inactive)
c1csc(-c2cc(-c3ccsc3)c(-c3cccs3)s2)c1
81.3 µM (inactive)

Now for another entry.
Look up GI50 for this compound: O=C1OCC/C1=N/O
> 100 µM (inactive)

###

# Tested on: KM12
# Protocol summary: NCI tumour cell line growth inhibition, 48 h
Calls of active or inactive are those of the source. Rule as the data show it: active = GI50 up to about 1.1 µM and inactive = higher.
Answer with one of the outcomes t (active), f (inactive)

As a guide, the following entries are already answered.
CCOC(=O)CC(NC(=O)c1nc[nH]c1/N=N/N(C)C)C(=O)OCC (stereo not drawn)
f
CC(O)c1cc2c(s1)C(=O)c1c(C(C)O)csc1C2=O (stereo not drawn)
t
O=C1OC2C(O)COC2(O)C1(O)Cc1c[nH]c2ccccc12 (stereo not drawn)
f
Cn1c(=O)c2nc(NCCO)cnc2n(C)c1=O
f

I would be grateful if you could indicate the recorded call for CC(=O)Nc1ccccc1S(=O)(=O)c1ccccc1 .
f

I would be grateful if you could indicate the recorded call for CC(O)c1cc2c(s1)C(=O)c1ccsc1C2=O (stereo not drawn) .
t

I would be grateful if you could indicate the recorded call for C/C1=C/C2OC(=O)C3(C)C2C(CC2(C)OC1=CC2=O)OC3(O)C(C)C (stereo not drawn) .
f

I would be grateful if you could indicate the recorded call for COC(=O)c1c(C)cccc1/C=C1\Cc2cc(C)cc(C)c2C1=O .
f

I would be grateful if you could indicate the recorded call for COc1cc2c(cc1OC)[C@H](C)N1CCc3cc(OC)c(OC)cc3[C@@H]1C2 .
f

I would be grateful if you could indicate the recorded call for NC1=NN(c2ccccc2)C2(c3ccncc3C(=O)O)C1C(N)=NN2c1ccccc1 (stereo not drawn) .
f

I would be grateful if you could indicate the recorded call for [O-][S+]1c2ccccc2N=C(c2ccc3ccccc3c2)CC1C1=CC=CCC1 (stereo not drawn) .
f

I would be grateful if you could indicate the recorded call for C[C@H]1CC[C@@H]2[C@@H](C)[C@H]3[C@H](C[C@H]4[C@@H]5CC=C6C[C@@H](O)CC[C@]6(C)[C@H]5CC[C@]34C)N2C1 .
f

I would be grateful if you could indicate the recorded call for CC1=C(C(=O)Nc2ccccc2)C(c2ccccc2)C(C(=O)Nc2ccccc2)=C(C)N1 .
f

###

# Test system: COLO 205
# Protocol summary: NCI tumour cell line growth inhibition, 48 h
Activity calls are given as the source filed them. Cut-off read from the data, not from the text of the source: active = GI50 up to about 1.1 µM and inactive = higher.
Outcome measure: GI50

Example entries and their recorded answers appear below.
Cc1nc2nnnn2c2c1C(=O)Nc1ccccc1N2
> 100 µM (inactive)
O=C(O)Cc1ccccc1 [PHENYLACETIC ACID]
> 100 µM (inactive)
Cn1c(=O)c2c(nc3n2CCC(=O)N3)n(C)c1=O
> 100 µM (inactive)

Look up GI50 for this compound: C=C1C(=O)OC2/C=C(\CO)C3OC3C3OC3(C)CC(OC(=O)/C(=C/C)CO)C12 (configuration not stated)
34.4 µM (inactive)

Look up GI50 for this compound: O=C(/C=C/c1c(O)ccc2ccccc12)c1ccccc1Cl
17.8 µM (inactive)

Look up GI50 for this compound: Cn1cnc([N+](=O)[O-])c1Sc1n[nH]c(-c2ccc(Cl)cc2)n1
17.1 µM (inactive)

Look up GI50 for this compound: CC(N)Cc1ccc(Cl)cc1 (configuration not stated)
> 100 µM (inactive)

Look up GI50 for this compound: CN(C)CCNC(=O)c1cccc2[nH]c(-c3cccnc3)nc12
14.5 µM (inactive)

Look up GI50 for this compound: Cc1ccc(C)c(NC(=O)CC/C(=N\NC(=O)c2c(O)ccc3ccccc23)C(C)C(=O)c2ccc(O)cc2)c1 (configuration not stated)
25.2 µM (inactive)

Look up GI50 for this compound: Nc1nc(SCCC/C=C/I)nc2c1ncn2C1OC(COP(=O)(O)O)C(O)C1O (configuration not stated)
> 100 µM (inactive)

Look up GI50 for this compound: CC(=O)OCC1OC(n2c3c(cc(C#N)c2=S)CCCCC3)C(OC(C)=O)C(OC(C)=O)C1OC(C)=O (configuration not stated)
> 100 µM (inactive)

Look up GI50 for this compound: Cc1c(-c2ccccc2)c(C#N)c2nnn(-c3cccc(Cl)c3)c(=O)n12
44.4 µM (inactive)

Look up GI50 for this compound: CCOC(=O)/C=C/[C@H](O[Si](c1ccccc1)(c1ccccc1)c1ccccc1)C(C)(C)C
> 31.6 µM (inactive)

Look up GI50 for this compound: Cc1ccc(-c2c(C#N)c(S)n(NS(=O)(=O)c3ccc(C)cc3)c(=O)c2C#N)cc1
30 µM (inactive)

Look up GI50 for this compound: CC(O)c1cc2c(s1)C(=O)c1c(C(C)O)csc1C2=O (configuration not stated)
1.28 µM (inactive)

Look up GI50 for this compound: CC[C@]1(Cc2ccc(OC)c(OC)c2)[C@@H]2C[C@@H](C3OCCO3)ON2O[C@H](OC2CCCC2(c2ccccc2)c2ccccc2)[C@@H]1OC(C)=O (some centres not stated)
26.9 µM (inactive)

Look up GI50 for this compound: CN(CCO)/N=N/c1[nH]cnc1C(N)=O
> 100 µM (inactive)
